experiment-notes: NCI Yeast Anticancer Drug Screen. Data for the cln2 rad14 strain (AID 165);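 further: 0% = growth equal to vehicle treated cultures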
experimental-parameters: S. cerevisiae cln2 rad14 strain, at 50.0 µM, hits give high values
The panel holds about 79,000 compounds, 15% with a hit somewhere; the sample as a whole holds those more often.
The label depends only on growth inhibition: Fulfilled if it is at least 90%, Not fulfilled if it is smaller.

>  <compound>
N=C(N)c1ccc(/C=C/c2ccc(C(=N)N)cc2)cc1

>  <class-label>
Not fulfilled

$$$$
>  <compound>
CCOC(=O)Cc1csc2[n+]1C(=O)/C(=C/c1ccc(OC)c(OC)c1)S2

>  <class-label>
Fulfilled

$$$$
>  <compound>
NCCC(N)P(=O)(O)O (stereo unspecified)

>  <class-label>
Not fulfilled

$$$$

Consider the record given below.
Problem: Please tell me: is the compound `CCC/C(=N\NC(=S)N(C)C)c1ccccn1` at or over 90% in terms of growth inhibition?
Solution: Fulfilled

---

Listing of entries alongside the reported growth inhibition.
experiment-notes: NCI Yeast Anticancer Drug Screen. Data for the mlh1 rad18 strain (AID 175)
experimental-parameters: S. cerevisiae mlh1 rad18 strain growth inhibition; at 50.0 µM (retest, dose inferred, filed as 5.0); hits give high values
About 79,000 compounds went through this panel and 15% of them were active in at least one assay; those are over-represented in the sample as a whole. Calls of active or inactive are those of the source. Rule as the data show it: active = growth inhibition above about 70%; inactive = the rest. Where a SMILES comes first, the peptide text is derived from it. The star is where a group is joined. X7 = Clc1c(Cl)c(Cl)c(O*)c(Cl)c1Cl; Boc = CC(C)(C)OC(=O)*; OBn = c1ccc(CO*)cc1; Bn = c1ccc(C*)cc1

For orientation, consider the following solved cases.
>  <molecule>
Cn1cnc([N+](=O)[O-])c1Sc1nc2ccccc2s1

>  <result>
98% (active)

$$$$
>  <molecule>
O=C1C(Br)CCC1(c1ccccc1)c1ccccc1 (stereo not given)

>  <result>
96% (active)

$$$$
>  <molecule>
O=C1CC2Sc3ccccc3N=C2N1c1ccc(Cl)cc1Cl (stereo not given)

>  <result>
98% (active)

$$$$

Problem: Using the record for CC(C)CC(NC(=O)C(CCC(=O)OCc1ccccc1)NC(=O)OC(C)(C)C)C(=O)NC(COCc1ccccc1)C(=O)NC(Cc1ccccc1)C(=O)Oc1c(Cl)c(Cl)c(Cl)c(Cl)c1Cl (stereo not given) (Boc-E(OBn)LS(Bn)F-X7; configuration not given here) , report its growth inhibition.
Solution: 76% (active)

Problem: Using the record for `Cc1cc(CC(O)(C(F)(F)F)C(F)(F)F)cc(CC(O)(C(F)(F)F)C(F)(F)F)n1` , report its growth inhibition.
Solution: 99% (active)

---

experiment-notes: NCI Yeast Anticancer Drug Screen. Data for the rad50 strain (AID 155);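 further: 0% = growth of vehicle-only cultures of the same strain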
experimental-parameters: S. cerevisiae rad50 strain growth inhibition; at 50.0 µM; hits give high values
About 79,000 compounds went through this panel and 15% of them were active in at least one assay; those are over-represented in the sample as a whole.
measured-quantity: growth inhibition (%)
The reply should be a number in %, with the unit left off.

>  <compound>
CCCCC(CCCC)=NNC(=S)SC

>  <growth inhibition, %>
83.9

$$$$
>  <compound>
Cc1cc(O)c(C(=O)/C=C/c2cccnc2)c(=O)[nH]1

>  <growth inhibition, %>
68.9

$$$$
>  <compound>
Clc1ccc2ccc3cccnc3c2n1

>  <growth inhibition, %>
-38.5

$$$$

Problem: Using the record for `CCOC(=O)C1=C(C)NC(C)=C(C(=O)OCC)C1c1ccc([N+](=O)[O-])s1` , report its growth inhibition.
Solution: 91.3
